tested on: KRAS PDC tumor spheroids (HUVEC+MSC), viability; experiment: Anticancer human tumor 254851-301-R-J1-PDC patient-derived colon carcinoma cell line growth inhibition [KRAS2]; details: second compound 0.316 µM; first compound 0.000316 µM; stronger effect = lower value
Each entry below lists one item and its recorded viability, T/C value.
Your answer is read as %, so omit the unit and give the number.

Would you please look over these solved cases?
CC(C)n1nc(-c2ccc3oc(N)nc3c2)c2c(N)ncnc21 + CNCc1ccccc1-c1csc(C(C)Nc2nc(C)nc3cc(OC)c(OC)cc23)c1	96.1
CC(C)n1nc(-c2ccc3oc(N)nc3c2)c2c(N)ncnc21 + CC1OCC2(CCN(c3cnc(Sc4ccnc(N)c4Cl)c(N)n3)CC2)C1N	101
Cn1ncnc1[C@H]1c2n[nH]c(=O)c3cc(F)cc(c23)N[C@@H]1c1ccc(F)cc1 + CC1OCC2(CCN(c3cnc(Sc4ccnc(N)c4Cl)c(N)n3)CC2)C1N	89.5
CN(C)C/C=C/C(=O)Nc1cc2c(Nc3ccc(F)c(Cl)c3)ncnc2cc1O[C@H]1CCOC1 + CNCc1ccccc1-c1csc(C(C)Nc2nc(C)nc3cc(OC)c(OC)cc23)c1	104
CN(C)C/C=C/C(=O)Nc1cc2c(Nc3ccc(F)c(Cl)c3)ncnc2cc1O[C@H]1CCOC1 + C=CC(=O)N1CCN(c2nc(OCC3CCCN3C)nc3c2CCN(c2cccc4cccc(C)c24)C3)CC1CC#N	101

stdin: Report the value of viability, T/C obtained on KRAS PDC tumor spheroids (HUVEC+MSC), viability for CN(C)C/C=C/C(=O)Nc1cc2c(Nc3ccc(F)c(Cl)c3)ncnc2cc1O[C@H]1CCOC1 + COc1cc2nc(C)nc(NC(C)c3cc(N)cc(C(F)(F)F)c3)c2cc1OC1CCOC1 .
stdout: 102

====

Each entry below lists one item and its recorded pIC50 value.
Tested on: KRAS PDC tumor spheroids (HUVEC+MSC), viability
Test: Anticancer human tumor 254851-301-R-J1-PDC cell line growth inhibition [KRAS2];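 note: spheroids exposed to compounds for seven days before readout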
Settings: curve of first compound; second compound 10 µM
Excerpt: Multicellular complex tumor spheroid response to RAS pathway inhibitors in combination with a targeted agents in patient-derived cell lines with oncogenic KRAS variants from multiple cancer types A high-throughput screen of multi-cell type tumor spheroids was designed to identify active combinations of targeted small molecules and KRAS pathway inhibitors. […] Compounds. […] If the clinical Cmax for an agent had not been determined, the highest concentration tested was 10 microM. […]
When answering, recall that pIC50 equals minus log10 of the concentration in mol/L, and write that number alone.

Would you please look over these solved cases?
CC(=O)Nc1cccc(-n2c(=O)n(C3CC3)c(=O)c3c(Nc4ccc(I)cc4F)n(C)c(=O)c(C)c32)c1 + C=CC(=O)N1CCN(c2nc(=O)n(-c3c(C)ccnc3C(C)C)c3nc(-c4c(O)cccc4F)c(F)cc23)C(C)C1	8.29
CC1COCCN1c1cc(-c2ccnn2C)c2ccnc(-c3ccn[nH]3)c2n1 (stereo not given) + COc1cc2nc(C)nc(NC(C)c3cc(N)cc(C(F)(F)F)c3)c2cc1OC1CCOC1	6.92

Could you now consider this next compound?
stdin: Note pIC50 for the compound shown: COc1cc2nccc(Oc3ccc(NC(=O)C4(C(=O)Nc5ccc(F)cc5)CC4)cc3)c2cc1OC + CC1OCC2(CCN(c3cnc(Sc4ccnc(N)c4Cl)c(N)n3)CC2)C1N
stdout: 5.22
